Recorded EC50 for the following molecules
- measuredTarget: delF508-CFTR (Homo sapiens, UniProt P13569, DEL508-508)
- Construct: endogenous in cells; host or cells: CFBE41o- human CF bronchial epithelial cells (delF508 homozygous)
- Sequence (P13569 with tags, fused parts or gaps DEL508-508): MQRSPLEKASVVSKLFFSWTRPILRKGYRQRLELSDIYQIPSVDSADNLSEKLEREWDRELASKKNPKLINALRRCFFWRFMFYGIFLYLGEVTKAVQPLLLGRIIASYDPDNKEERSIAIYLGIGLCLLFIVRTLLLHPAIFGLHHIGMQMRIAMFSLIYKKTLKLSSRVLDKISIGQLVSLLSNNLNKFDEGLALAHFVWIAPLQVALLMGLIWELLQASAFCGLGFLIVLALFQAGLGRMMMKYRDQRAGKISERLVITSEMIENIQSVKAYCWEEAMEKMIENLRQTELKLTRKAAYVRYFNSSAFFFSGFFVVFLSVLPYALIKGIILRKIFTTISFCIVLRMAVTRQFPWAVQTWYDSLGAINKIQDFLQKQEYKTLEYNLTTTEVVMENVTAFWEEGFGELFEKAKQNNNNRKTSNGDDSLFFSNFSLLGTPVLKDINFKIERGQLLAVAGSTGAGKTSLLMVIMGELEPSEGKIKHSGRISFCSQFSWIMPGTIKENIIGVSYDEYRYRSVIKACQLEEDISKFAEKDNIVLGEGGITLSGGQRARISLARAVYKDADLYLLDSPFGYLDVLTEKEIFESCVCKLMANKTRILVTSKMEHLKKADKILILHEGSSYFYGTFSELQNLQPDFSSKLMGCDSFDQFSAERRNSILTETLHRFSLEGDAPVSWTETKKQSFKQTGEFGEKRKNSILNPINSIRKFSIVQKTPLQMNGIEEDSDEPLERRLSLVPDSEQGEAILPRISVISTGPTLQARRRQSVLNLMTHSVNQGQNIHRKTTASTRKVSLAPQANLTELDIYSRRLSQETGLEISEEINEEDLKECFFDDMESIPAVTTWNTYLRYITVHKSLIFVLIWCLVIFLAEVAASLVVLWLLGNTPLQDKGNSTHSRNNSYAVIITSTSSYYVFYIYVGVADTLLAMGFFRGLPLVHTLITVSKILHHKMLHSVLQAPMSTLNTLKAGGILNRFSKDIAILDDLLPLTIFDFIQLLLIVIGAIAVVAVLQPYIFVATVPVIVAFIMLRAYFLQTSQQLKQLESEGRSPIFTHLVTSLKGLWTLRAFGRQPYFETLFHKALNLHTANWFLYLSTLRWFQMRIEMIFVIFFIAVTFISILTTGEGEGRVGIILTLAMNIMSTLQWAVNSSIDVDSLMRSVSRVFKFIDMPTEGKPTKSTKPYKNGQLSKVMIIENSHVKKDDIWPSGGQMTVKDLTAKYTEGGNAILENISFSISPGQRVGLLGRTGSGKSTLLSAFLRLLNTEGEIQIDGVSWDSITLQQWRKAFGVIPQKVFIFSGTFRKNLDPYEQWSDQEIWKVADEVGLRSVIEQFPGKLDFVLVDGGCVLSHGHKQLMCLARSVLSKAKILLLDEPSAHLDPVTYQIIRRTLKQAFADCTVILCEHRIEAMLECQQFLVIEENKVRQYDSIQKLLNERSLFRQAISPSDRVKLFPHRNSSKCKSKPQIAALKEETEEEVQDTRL
- experiment: SPQ halide-sensitive fluorescence dye assay for rescue of halide efflux (8-point concentration-response)
- Type: cell-based
- recordedConditions: CFBE41o- cells, 48 h; read-out: SPQ EC50
Write the number in µM without appending the unit.

Worked examples follow.
INSERT INTO results (molecule, testreadout, readoutunit, endpointvalue) VALUES
  ('C/C=C/Cn1c(=O)c2c(nc3n(C(C)CC)c(C)c(C)n23)n(C)c1=O (stereo not shown)', 'EC50', 'µM', 0.2),
  ('Cc1c(C)n2c3c(=O)n(CCCO)c(=O)n(C)c3nc2n1-c1ccccc1', 'EC50', 'µM', 20.3);

Looking for the measured EC50 of CCn1c(=O)c2c(nc3n(-c4cccc(C)c4)c(C)c(C)n23)n(C)c1=O , can you help?
8.9

###

- measuredTarget: delF508-CFTR (Homo sapiens, UniProt P13569, DEL508-508)
- Construct: endogenous in cells; host or cells: CFBE41o- human CF bronchial epithelial cells (delF508 homozygous)
- experiment: SPQ halide-sensitive fluorescence dye assay for rescue of halide efflux (8-point concentration-response)
- Type: cell-based
- recordedConditions: CFBE41o- cells, 48 h; read-out: SPQ EC50
The label is met for EC50 below 10 µM and not met for EC50 equal to or exceeding 10 µM.

INSERT INTO measurements (compound, qualitativelabel) VALUES
  ('COc1cccc(N2CC(C)Cn3c2nc2c3c(=O)n(C)c(=O)n2C)c1 (stereo not drawn) [IV-5]', 'met');

EC50 under 10 µM? Item: C/C=C/Cn1c(=O)c2c(nc3n(-c4ccccc4O)c(C)c(C)n23)n(C)c1=O [Compound I-19]
met

EC50 under 10 µM? Item: COc1ccc(N2CC(C)Cn3c2nc2c3c(=O)n(C)c(=O)n2C)cc1 (stereo not drawn) [IV-2]
not met

EC50 under 10 µM? Item: COc1cccc(N2CC(C)Cn3c2nc2c3c(=O)n(CCCO)c(=O)n2C)c1 (stereo not drawn) [IV-10]
not met

EC50 under 10 µM? Item: C/C=C/Cn1c(=O)c2c(nc3oc(C(C)(C)C)cn32)n(C)c1=O [II-1]
not met

EC50 under 10 µM? Item: Cn1c(=O)c2c3c(cnc2n(C)c1=O)C(=O)CC(c1ccccc1)C3 (stereo not drawn) [VI-3]
met

EC50 under 10 µM? Item: C=CCn1c(C)cn2c3c(=O)n(Cc4ccccc4C)c(=O)n(C)c3nc12 [Compound I-16]
not met

EC50 under 10 µM? Item: CCc1ccc(-n2c(C)cn3c4c(=O)n(CCCO)c(=O)n(C)c4nc23)cc1 [Compound I-42]
not met

EC50 under 10 µM? Item: CCCn1c(=O)c2c(nc3n(C(C)CC)c(C)cn23)n(C)c1=O (stereo not drawn) [Compound I-37]
not met

###

- measuredTarget: delF508-CFTR (Homo sapiens, UniProt P13569, DEL508-508)
- Construct: endogenous in cells; host or cells: CFBE41o- human CF bronchial epithelial cells (delF508 homozygous)
- experiment: SPQ halide-sensitive fluorescence dye assay for rescue of halide efflux (8-point concentration-response)
- Format: cell-based
- recordedConditions: CFBE41o- cells, 48 h
Short version: ΔSPQ (difference between maximum and minimum SPQ values) at least 7000 RFU is Satisfied, less is Not satisfied.

INSERT INTO assay_data (compound, qualitativelabel) VALUES
  ('C=CCN1N=C(C)Cn2c1nc1c2c(=O)n(CCC)c(=O)n1C', 'Not satisfied'),
  ('CCCn1c(=O)c2c(nc3n(Cc4ccccc4)c(C)c(C)n23)n(C)c1=O', 'Satisfied'),
  ('COc1ccc(N2CC(C)Cn3c2nc2c3c(=O)n(C)c(=O)n2C)cc1 (centres unmarked)', 'Not satisfied'),
  ('Cn1c(=O)n(Cc2ccccc2)c(=O)c2c1nc1oc(C(C)(C)C)cn12', 'Satisfied'),
  ('C=CCn1c(=O)c2c(nc3n(C(C)c4ccccc4)c(C)c(C)n23)n(C)c1=O (centres unmarked)', 'Satisfied');

Quick check: does C=C(C)CN1N=C(C)Cn2c1nc1c2c(=O)n(CC)c(=O)n1C have ΔSPQ (difference between maximum and minimum SPQ values) greater than or equal to 7000 RFU?
Not satisfied

Quick check: does Cc1c(C)n2c3c(=O)n(CCCO)c(=O)n(C)c3nc2n1-c1ccccc1 have ΔSPQ (difference between maximum and minimum SPQ values) greater than or equal to 7000 RFU?
Satisfied

Quick check: does COc1cccc(CN2CCN(c3nc4c(=O)n(C)c(=O)n(C)c4[nH]3)CC2)c1 have ΔSPQ (difference between maximum and minimum SPQ values) greater than or equal to 7000 RFU?
Not satisfied

Quick check: does CCc1ccc(-n2c(C)c(C)n3c4c(=O)n(CCCO)c(=O)n(C)c4nc23)cc1 have ΔSPQ (difference between maximum and minimum SPQ values) greater than or equal to 7000 RFU?
Satisfied

Quick check: does CCn1c(=O)c2c(nc3n(-c4cccc(C)c4)c(C)c(C)n23)n(C)c1=O have ΔSPQ (difference between maximum and minimum SPQ values) greater than or equal to 7000 RFU?
Not satisfied

Quick check: does Cn1c(=O)c2[nH]c(N3CCN(c4ccccc4O)CC3)nc2n(C)c1=O have ΔSPQ (difference between maximum and minimum SPQ values) greater than or equal to 7000 RFU?
Satisfied

Quick check: does CCn1c(=O)c2c(nc3n(-c4cccc(Cl)c4C)c(C)cn23)n(C)c1=O have ΔSPQ (difference between maximum and minimum SPQ values) greater than or equal to 7000 RFU?
Satisfied

Quick check: does C=CCn1c(Oc2ccc(Br)cc2)nc2c1c(=O)n(C)c(=O)n2C have ΔSPQ (difference between maximum and minimum SPQ values) greater than or equal to 7000 RFU?
Satisfied

Quick check: does C=CCn1c(=O)c2c(nc3n(-c4ccccc4C)c(C)c(C)n23)n(C)c1=O have ΔSPQ (difference between maximum and minimum SPQ values) greater than or equal to 7000 RFU?
Satisfied

Quick check: does CCCN1N=C(C)C(C)n2c1nc1c2c(=O)n(CCC)c(=O)n1C (centres unmarked) have ΔSPQ (difference between maximum and minimum SPQ values) greater than or equal to 7000 RFU?
Not satisfied

Quick check: does C=CCN1N=C(C)Cn2c1nc1c2c(=O)n(CCCC)c(=O)n1C have ΔSPQ (difference between maximum and minimum SPQ values) greater than or equal to 7000 RFU?
Satisfied
